OBSERVED_PROPERTY: pIC50
Formally, pIC50 is defined as -log10 of the concentration c, with c in mol/L.

QUERY: Give the reported pIC50 for O=c1c(O)c(-c2ccc(O)c(O)c2)oc2cc(O)cc(O)c12 [quercetin] (system: β-galactosidase (Escherichia coli, UniProt P00722)).
Sequence (P00722 2-1024 limits assumed): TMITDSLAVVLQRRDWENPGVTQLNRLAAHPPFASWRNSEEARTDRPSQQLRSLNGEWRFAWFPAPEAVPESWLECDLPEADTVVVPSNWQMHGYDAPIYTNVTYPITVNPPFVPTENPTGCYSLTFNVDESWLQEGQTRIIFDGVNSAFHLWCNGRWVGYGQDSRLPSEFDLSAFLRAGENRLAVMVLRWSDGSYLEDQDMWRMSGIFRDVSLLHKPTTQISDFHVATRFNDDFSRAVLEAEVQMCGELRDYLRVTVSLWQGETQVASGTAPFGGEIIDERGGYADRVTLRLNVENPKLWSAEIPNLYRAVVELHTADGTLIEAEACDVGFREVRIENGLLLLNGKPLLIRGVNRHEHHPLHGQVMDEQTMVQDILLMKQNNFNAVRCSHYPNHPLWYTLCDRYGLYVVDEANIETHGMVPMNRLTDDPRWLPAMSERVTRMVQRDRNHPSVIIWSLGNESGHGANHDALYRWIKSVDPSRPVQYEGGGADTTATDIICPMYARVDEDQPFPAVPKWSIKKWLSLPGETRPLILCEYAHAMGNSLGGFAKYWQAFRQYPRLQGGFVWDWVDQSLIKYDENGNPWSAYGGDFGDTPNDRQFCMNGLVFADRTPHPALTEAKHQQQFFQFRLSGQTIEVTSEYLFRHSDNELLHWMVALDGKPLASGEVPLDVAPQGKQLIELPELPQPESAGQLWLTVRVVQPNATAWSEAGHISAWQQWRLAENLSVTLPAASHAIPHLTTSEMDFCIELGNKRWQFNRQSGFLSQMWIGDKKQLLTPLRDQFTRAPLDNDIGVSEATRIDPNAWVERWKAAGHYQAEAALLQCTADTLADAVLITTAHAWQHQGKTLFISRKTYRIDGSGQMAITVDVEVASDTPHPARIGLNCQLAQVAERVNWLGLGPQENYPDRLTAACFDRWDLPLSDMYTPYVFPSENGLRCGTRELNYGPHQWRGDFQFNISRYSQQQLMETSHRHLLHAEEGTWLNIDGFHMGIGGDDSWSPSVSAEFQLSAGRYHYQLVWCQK
RESULT: 3.66

* * *

TESTED_SYSTEM: chymotrypsin (Bos taurus, UniProt P00766)
TEST_NAME: chymotrypsin inhibition enzyme assay
Format: biochemical
CONDITION_LABEL: Table 6; read-out: IC50 vs. chymo.
OBSERVED_PROPERTY: IC50

QUERY: Looking for the measured IC50 of O=C1Nc2cccc(O)c2C1Cc1ccc2c(c1)CCCC2 (stereo not drawn) , can you help?
RESULT: 40 µM

QUERY: Tell me the measured IC50 of O=C(O)c1cc(-c2ccc(Cl)cc2)nc(-c2ccc(Nc3ccc(Cl)cc3)cc2)c1 , please.
RESULT: 2 µM

QUERY: Can you look up the measured IC50 of CC(C)(C)c1ccc(-c2cc(C(=O)O)cc(-c3ccc(Cl)c(O)c3)n2)cc1 for me?
RESULT: 13 µM
